This collection of values is drawn from the supplement of paper PMC12455559.

protocol_notes: PET hydrolysis, aromatic products released after 48 h (umol product/mg enzyme); higher = more PET depolymerization activity
conditions: substrate: cryPow; 40 °C; pH 8.5
experimental_readout: PET hydrolysis

SAQVTRQAAGSYARGPAPTLAGIRAALGPFAYSTVTVTAAQAGGAFGGGTIYYPDDTSQGTFGGVAAVPGYQSAEKAVAWLGPRLASQGFVVITIATNGLTDQPTARGKQLLGALDYLTAQSPAAVRQRLDPNRLAVTGHSMGGGGTLYAAWTRPSLKAAVPLAPWHTIKNWSGITVPTLVQGGTQDTTAQVGTFAEPIYQSLTGARERAYAEIADAAHGTFVRENPLIGALEVAWLKRFVDDDGRYEQFLCPAPADSELTEYRDSCPSS [DP009]	10

API: the following record is the query input.
[in] Name the reported PET hydrolysis value associated with the sequence ATGPSSPCSNCTRGPDPTVASLKSATGPYTTAKFSVSGYLKGFGDSTVYYPTNASGKMGAIAVIPGYVSYEDSIKWWGPRLASHGFVVMTMNTSTIYDQPDSRATQLSKALDYMIAQSGSSSSPIYNKVDSTRLGVIGWSMGGGGTLKLSTQRSINAIIPQAPYYAGSNSFNTIKTPALILACGADAVAPVGVHASPFYNRIPGTTPKAYLEIYGGSHFCANSGYPNEDLLGMYGIAWMKRFIDFDSRYSKFLCGPNHTADLNISEYRQNCNY [DP078]
[out] 66
